# System: human non-small-cell lung cancer cell lines H460
# measurement-notes: SRB growth inhibition of lung cancer cells
# Format: cell-based
# reported-conditions: derivative dissolved in DMSO; 48 hours; SRB; read-out: IC50 of H460 in DMSO
pIC50: −log10 of the molar value.
endpoint-label: pIC50

As a guide, the following entries are already answered.
compound | system-under-test | pIC50
CC(=O)NS(=O)(=O)c1ccc(C)cc1 [PTSA001] | human non-small-cell lung cancer cell lines H460 | 2.11
COC(=O)NS(=O)(=O)c1ccc(C)cc1 | human non-small-cell lung cancer cell lines H460 | 2.21
Cc1ccc(S(=O)(=O)NC2COC2)cc1 | human non-small-cell lung cancer cell lines H460 | 3.39
Cc1ccc(S(N)(=O)=O)cc1 [p-TSA, Toluene sulfonamide, reference compound] | human non-small-cell lung cancer cell lines H460 | 2.43

P = CCOC(=O)NS(=O)(=O)c1ccc(C)cc1
Q = Cc1ccc(S(=O)(=O)N2CC(O)C2)cc1
Q) Quick check, higher pIC50 between P and Q ? Write the label of whichever entry you select.
A) Q
